Test system: IL6
Test: IL-1β stimulated IL6 inhibition assay in PBMC
Format: cell-based
Conditions: PBMC; human PBMCs, IL-1β stimulation, compound overnight, IL6 by MSD after 24 hrs; read-out: IL1β stim IL6 inhibition Ymax
Readout: Emax

I am curious: what Emax value has been reported for O=C1CCC(N2C(=O)c3ccc(N4CCC(CN5CCC([C@H](F)Cn6cc7cc(NC(=O)c8cnn9cccnc89)c(OCC8CC8)cc7n6)CC5)CC4)cc3C2=O)C(=O)N1 (stereo partly drawn) [Example 182] ? 80 to 90%

I am curious: what Emax value has been reported for Cc1cnc2c(C(=O)Nc3cc4c(cc3OC(C)C)C(=O)N(C3CCN(CCc5ccc6c(c5)CN(C5CCC(=O)NC5=O)C6=O)CC3)C4)cnn2c1 (stereo not drawn) [Example 9] ? ≥ 90%

I am curious: what Emax value has been reported for O=C1CCC(N2C(=O)c3ccc(N4CC(CN5CCC(N6Cc7cc(NC(=O)c8cnn9cccnc89)c(N8CCOCC8)cc7C6=O)CC5)C4)cc3C2=O)C(=O)N1 (stereo not drawn) [Example 96] ? ≥ 90%

----------
Hi there, I'd appreciate the recorded DC50 for every entry that follows.
Target: IRAK-4 (Homo sapiens, UniProt Q9NWZ3)
Sequence (Q9NWZ3 whole entry): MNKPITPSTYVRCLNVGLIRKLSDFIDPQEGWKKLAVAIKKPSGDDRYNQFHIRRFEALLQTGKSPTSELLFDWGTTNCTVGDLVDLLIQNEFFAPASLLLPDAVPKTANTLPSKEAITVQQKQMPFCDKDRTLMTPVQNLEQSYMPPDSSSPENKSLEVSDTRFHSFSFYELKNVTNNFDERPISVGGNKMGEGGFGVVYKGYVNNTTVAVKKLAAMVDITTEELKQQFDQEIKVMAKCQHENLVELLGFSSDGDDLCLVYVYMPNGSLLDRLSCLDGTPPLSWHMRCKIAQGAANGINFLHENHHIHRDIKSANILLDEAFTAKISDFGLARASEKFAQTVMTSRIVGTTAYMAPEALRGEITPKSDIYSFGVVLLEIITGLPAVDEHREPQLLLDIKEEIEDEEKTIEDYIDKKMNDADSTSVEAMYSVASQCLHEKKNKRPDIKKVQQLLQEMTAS
Assay: IRAK-4 ELISA, PBMC degradation
Type: cell-based
Set-up: endogenous in cells; host or cells: PBMC
Conditions: treated overnight

I am curious: what DC50 value has been reported for CC(C)Oc1cc2c(cc1NC(=O)c1cnn3cccnc13)CN(C1CCN(C3(C)CN(c4ccc5c(c4)CN(C4CCC(=O)NC4=O)C5=O)C3)CC1)C2=O (stereo not drawn) [Example 275] ? < 1 nM

I am curious: what DC50 value has been reported for COc1cc(N2CCC(CN3CCC(n4cc5cc(NC(=O)c6cnn7cccnc67)c(OCC6CC6)cc5n4)CC3)CC2)cc2c1C(=O)N(C1CCC(=O)NC1=O)C2=O (stereo not drawn) [Example 133] ? < 1 nM

I am curious: what DC50 value has been reported for CC(C)Oc1cc2c(cc1NC(=O)c1cnn3cccnc13)CN(C[C@@H](F)C1CCN(CC3CN(c4ccc5c(c4)C(=O)N(C4CCC(=O)NC4=O)C5=O)C3)CC1)C2=O (stereo partly drawn) [Example 70] ? < 1 nM

I am curious: what DC50 value has been reported for CC(C)Oc1cc2nn(C3CCN(CC4(F)CN(c5cccc6c5C(=O)N(C5CCC(=O)NC5=O)C6=O)C4)CC3)cc2cc1NC(=O)c1cnn2cccnc12 (stereo not drawn) [Example 271] ? 5 to 10 nM

I am curious: what DC50 value has been reported for CC(C)Oc1cc2c(cc1NC(=O)c1cnn3cccnc13)CN(C1CCN(C[C@@H]3CCCN(c4ccc5c(c4)C(=O)N(C4CCC(=O)NC4=O)C5=O)C3)CC1)C2=O (stereo partly drawn) [Example 77] ? 1 to 5 nM

I am curious: what DC50 value has been reported for CC(C)Oc1cc2c(cc1NC(=O)c1cnn3cccnc13)CN(C1CCN(CC3CCN(c4ccc(C(=O)NC5CCC(=O)NC5=O)c(F)c4)CC3)CC1)C2=O (stereo not drawn) [Example 286] ? 1 to 5 nM

I am curious: what DC50 value has been reported for O=C1CCC(N2C(=O)c3ccc(N4CCN(C[C@H]5CC[C@H](N6Cc7cc(NC(=O)c8cnn9cccnc89)c(N8CCN(CC(F)F)CC8)cc7C6=O)CC5)CC4)cc3C2=O)C(=O)N1 (stereo partly drawn) [371′] ? 1 to 5 nM

I am curious: what DC50 value has been reported for O=C1CCC(N2C(=O)c3ccc(N4CC(N5CCC(N6Cc7cc(NC(=O)c8cnn9cccnc89)c(N8CCC(N9CCC9)CC8)cc7C6=O)CC5)C4)cc3C2=O)C(=O)N1 (stereo not drawn) [Example 99] ? 5 to 10 nM

I am curious: what DC50 value has been reported for O=C1CCC(N2Cc3ccc(N4CCN(C[C@H]5CC[C@H](n6cc7cc(NC(=O)c8cnn9cccnc89)c(OCC(F)F)cc7n6)CC5)CC4)cc3C2=O)C(=O)N1 (stereo partly drawn) [Example 433] ? < 1 nM

I am curious: what DC50 value has been reported for O=C1CCC(N2Cc3c(ccc(N4CCC(CN5CCC(n6cc7cc(NC(=O)c8cnn9cccnc89)c(OCC(F)F)cc7n6)CC5)CC4)c3F)C2=O)C(=O)N1 (stereo not drawn) [Example 154] ? < 1 nM

I am curious: what DC50 value has been reported for O=C1CCC(N2C(=O)c3ccc(N4CCC(CN5CCC(N6Cc7cc(NC(=O)c8cnn9cccnc89)c(N8CCOCC8)cc7C6=O)CC5)CC4)cc3C2=O)C(=O)N1 (stereo not drawn) [Example 32] ? 1 to 5 nM

I am curious: what DC50 value has been reported for O=C1CCC(N2C(=O)c3ccc(N4CCN(C[C@H]5CC[C@H](n6cc7cc(NC(=O)c8cnn9cccnc89)c(OCC(F)F)cc7n6)CC5)CC4)cc3C2=O)C(=O)N1 (stereo partly drawn) [Example 430] ? 1 to 5 nM

I am curious: what DC50 value has been reported for O=C1CCC(N2C(=O)c3ccc(N4CCCC5(CN(CCN6CCC(n7cc8cc(NC(=O)c9cnn%10cccnc9%10)c(OCC9CC9)cc8n7)CC6)C5)C4)cc3C2=O)C(=O)N1 (stereo not drawn) [Example 248] ? 1 to 5 nM

I am curious: what DC50 value has been reported for O=C1CCC(N2C(=O)c3ccc(N4CC(CN5CCC([C@H](F)CN6Cc7cc(NC(=O)c8cnn9cccnc89)c(N8CCOCC8)cc7C6=O)CC5)C4)cc3C2=O)C(=O)N1 (stereo partly drawn) [Example 412] ? 1 to 5 nM

I am curious: what DC50 value has been reported for O=C1CCC(N2C(=O)c3ccc(N4CC(F)(CN5CCC(N6Cc7cc(NC(=O)c8cnn9cccnc89)c(OC8CC8)cc7C6=O)CC5)C4)cc3C2=O)C(=O)N1 (stereo not drawn) [Example 85] ? 1 to 5 nM

I am curious: what DC50 value has been reported for CC(C)Oc1cc2c(cc1NC(=O)c1cnn3cccnc13)CN(C1CCN(CC3(C)CN(c4ccc5c(c4)C(=O)N(C4CCC(=O)NC4=O)C5=O)C3)CC1)C2=O (stereo not drawn) [Example 72] ? < 1 nM

I am curious: what DC50 value has been reported for O=C1CCC(N2Cc3cc(N4CCC(CN5CCC(N6Cc7cc(NC(=O)c8cnn9cccnc89)c(N8CCC(N9CCC9)CC8)cc7C6=O)CC5)CC4)ccc3C2=O)C(=O)N1 (stereo not drawn) [Example 97] ? < 1 nM

I am curious: what DC50 value has been reported for O=C1CCC(N2C(=O)c3ccc(N4CCC(CN5CC[C@H](n6cc7cc(NC(=O)c8cnn9cccnc89)c(OCC8CC8)cc7n6)[C@@H](F)C5)CC4)cc3C2=O)C(=O)N1 (stereo partly drawn) [Example 184] ? 1 to 5 nM

I am curious: what DC50 value has been reported for O=C1CCC(N2C(=O)c3ccc(N4CC(F)(CN5CCC(n6cc7cc(NC(=O)c8cnn9cccnc89)c(OCC8CC8)cc7n6)CC5)C4)c(F)c3C2=O)C(=O)N1 (stereo not drawn) [Example 262] ? 1 to 5 nM

I am curious: what DC50 value has been reported for O=C1CCC(N2Cc3cc(N4CC(F)(CN5CCC(N6Cc7cc(NC(=O)c8cnn9cccnc89)c(N8CCC(N9CCC9)CC8)cc7C6=O)CC5)C4)ccc3C2=O)C(=O)N1 (stereo not drawn) [Example 117] ? 1 to 5 nM

I am curious: what DC50 value has been reported for Cc1cnc2c(C(=O)Nc3cc4c(cc3OC(C)C)C(=O)N(C3CCN(CCc5ccc6c(c5)CN(C5CCC(=O)NC5=O)C6=O)CC3)C4)cnn2c1 (stereo not drawn) [Example 9] ? 1 to 5 nM
